Recorded values, source patent US20170145112A1.

- system: T1, Human complement Factor D, mature (human, UniProt P00746 27-253)
- T1 construct: In the TR-FRET assay the factor D was bought from Complement Technology; In the hemolysis assay it was the factor D of C1q-depleted human serum; also called human Factor D; hFD
- T1 sequence (P00746 27-253): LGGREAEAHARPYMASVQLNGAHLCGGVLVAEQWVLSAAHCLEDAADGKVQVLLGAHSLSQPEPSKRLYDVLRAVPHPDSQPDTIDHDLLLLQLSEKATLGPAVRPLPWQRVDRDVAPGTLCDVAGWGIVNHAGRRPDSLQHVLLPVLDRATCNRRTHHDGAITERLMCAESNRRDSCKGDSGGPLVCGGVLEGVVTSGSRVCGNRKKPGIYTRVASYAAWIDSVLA
- procedure text: SPR (Biacore T200): Fab captured with anti-huFab kit, human Factor D injected, 25 C, 1:1 model;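 also: sensorgrams were corrected by subtracting a blank injection of running buffer before fitting kinetic and affinity constants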
experimental readout: kon (M⁻¹ s⁻¹)
Response body: numeric value in M⁻¹ s⁻¹, unit text excluded.

# kon (binder: hu20D12.v2.4 Fab (Fab, V domains shown) VH: EVQLVQSGAEVKKPGASVKVSCKASGYTFTSYYMYWVRQAPGQGLEWIGEINPTSGETNFNEKFKSRATLTVDTSTSTAYLELSSLRSEDTAVYYCAREGGFAYWGQGTLVTVSS VL: DIQMTQSPSSLSASVGDRVTITCKASQNVDTDVAWFQQKPGKAPKGLIYSASSRYSGVPSRFSGSGSGTDFTLTISSLQPEDFATYYCQQYNNYPLTFGQGTKVEIKR ) is 1.7e+07

# kon (binder: hu20D12.v2.10 Fab (Fab, V domains shown) VH: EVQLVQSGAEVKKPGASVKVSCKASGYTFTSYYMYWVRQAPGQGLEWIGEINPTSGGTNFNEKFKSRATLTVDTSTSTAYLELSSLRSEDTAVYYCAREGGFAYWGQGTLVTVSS VL: DIQMTQSPSSLSASVGDRVTITCKASQNVDTDVAWFQQKPGKAPKGLIYSASSRKSGVPSRFSGSGSGTDFTLTISSLQPEDFATYYCQQYNNYPLTFGQGTKVEIKR ) is 5e+06

# kon (binder: AFD.v8 Fab (Fab, V domains shown, Variant of lampalizumab) VH: EVQLVQSGPELKKPGASVKVSCKASGYTFTNYGMNWVRQAPGQGLEWMGWINTYTGETTYAEDFKGRFVFSLDTSVSTAYLQISSLKAEDTAVYYCEREGGVNNWGQGTLVTVSS VL: DIQVTQSPSSLSASVGDRVTITCITSTSIESDMNWYQQKPGKVPKLLISGGNTLRPGVPSRFSGSGSGTDFTLTISSLQPEDVATYYCLQSDSLPYTFGQGTKVEIKR ) is 2e+07
